Readings of inhibition for the listed compounds
Experiment: inhibitors of Chlamydomonas gravitaxis, primary screen, whole organism, Chlamydomonas reinhardtii, WT vs cilia-less mutant, absorbance, 96-well (AID 463189);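 further: 0% = wild type cc124 cells in DMSO and 100% = ciliumless bld1 mutant cells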
Settings: OD600 absorbance, 2 days, at 10 µM, active compounds read high
property_label: inhibition (%)

1. COc1ccccc1C(=O)NC(=Nc1nc2ccccc2o1)NC(=O)c1ccccc1OC    -7.36
2. COc1cccc(-c2nc(NCC3CCCO3)c3ccccc3n2)c1O (stereo unspecified)    55.5
3. CCCOc1cccc(C2/C(=C(/O)c3ccccc3)C(=O)C(=O)N2CCN(C)C)c1 (stereo unspecified)    30.4
4. CC(C)Cc1nc(N2CCN(C(=O)C(C)C)CC2)c(C#N)c2c1CCC2    5.12
5. CCn1cc(C(=O)O)c(=O)c2cc(F)c(N3CCNCC3)nc21    -14
6. CCCc1c(OCCCCc2nn[nH]n2)ccc(C(C)=O)c1O    -12.8
7. CN(C)S(=O)(=O)Nc1ccc(NS(=O)(=O)N(C)C)c(S(=O)(=O)c2ccccc2)c1    -7.02
8. COc1ccc2c(c1)[nH]c1c(=O)n(CCN(C)C)cnc12    2.29
9. CCn1c(-c2ccco2)n[nH]c1=S    19.9
10. COc1cccc(-c2nc(N3CCN(Cc4ccccc4)CC3)c3ccccc3n2)c1O    8.35
11. COCc1[nH]nc2c1C(c1ccccc1OC)C(C#N)=C(N)O2 (stereo unspecified)    31.9
12. CCCC(=O)O[C@]1(C(=O)CCl)[C@@H](C)C[C@H]2[C@@H]3CCC4=CC(=O)C=C[C@]4(C)[C@@]3(F)C(=O)C[C@@]21C    47.7
13. O=C(O)c1ccccc1S    -11
14. CC(=O)[C@H]1CC[C@H]2[C@@H]3CCC4=CC(=O)CC[C@]4(C)[C@H]3[C@H](O)C[C@]12C    -5.96
15. COc1ccccc1N(Cc1cc2cccc(C)c2[nH]c1=O)C(=O)C(C)C    28.4
16. CN1c2ccccc2N(C)C1c1c(O)ccc2ccccc12    1.66
17. COc1cc([C@@H]2[C@H]3CNCC=C3C(C#N)=C(N)C2(C#N)C#N)ccc1OC(C)C    -1.69
18. CC(=O)C1=C(O)C(=O)N(Cc2cccnc2)C1c1ccccc1Cl (stereo unspecified)    10.6
19. S=c1nc(-c2ccccc2)[nH]n1-c1ccccc1    -5.69
20. CN(C)CC(O)COc1ccc(C(C)(C)c2ccc(OCC(O)CN(C)C)cc2)cc1 (stereo unspecified)    -19.9
21. CC1(C)S[C@@H]2[C@H](NC(=O)[C@H](C(=O)O)c3ccsc3)C(=O)N2[C@H]1C(=O)O    11.7
22. Nc1ncnc2nc(SCc3ccccc3)[nH]c12    8.96
23. CCOc1c(C)cc2[nH]c(CCC(=O)O)nc2c1C    21.6
24. CCCCCCOC(=O)CCn1[nH]c(=O)c2ccccc2c1=O    27.6
25. COc1ccc(CN2CCC(=O)NC2=O)cc1    2.33
26. CC(=O)NCCCCCCNC(C)=O    20.9
27. CC1CN(C2CCN(C(=O)c3ccccc3)CC2)CC(C)O1 (stereo unspecified)    4.48
28. CC(C)(C)C1=Nn2c(nnc2-c2ccco2)SC1    -3.69
29. CCOC(=O)CSc1nc(N)c2c3c(sc2n1)CCCC3    -8.25
30. O/N=C(\c1ccc2c(c1)OCCO2)C1CCCCC1    124
31. COCCNC(=O)c1c(N)n(CCC2=CCCCC2)c2nc3ccccc3nc12    25.3
32. CCn1c(SC(C)C(=O)O)nc2sc3c(c2c1=O)CCC3 (stereo unspecified)    7.74
33. CCN(CC)CCCC1(CN)OCCc2ccccc21 (stereo unspecified)    24.5
34. C=CCOC(=O)C(C#N)c1nc2ccccc2nc1N1CCN(c2ccccc2OCC)CC1 (stereo unspecified)    -7.78
35. CC(C)Cc1nc(NCCN2CCOCC2)c(C#N)c2c1COC(C)(C)C2    4.53
36. CCOC(=O)c1c(C)n(C)c2ccc(OC)c(NC(=O)CN3CCN(Cc4ccccc4)CC3)c12    -10.1
37. COc1ccccc1OCC(=O)Nc1ccc(S(=O)(=O)Nc2cc(C)nc(C)n2)cc1    -4.91
38. O=C1C(=O)N(CCN2CCOCC2)C(c2ccccn2)/C1=C(/O)c1ccccc1 (stereo unspecified)    -11.4
39. N#CC1=C(C=Nc2ccccc2O)CCC1    11.8
40. COc1ccc(OC(=O)c2cc3ccccc3o2)cc1    -0.854
41. Fc1ccccc1/C=N/n1cnnc1    5.22
42. COC(=O)c1ccc(=O)n(Cc2ccco2)c1    -14.2
43. COc1ccc(/C(O)=C2/C(=O)C(=O)N(CCN(C)C)C2c2ccccn2)cc1OC (stereo unspecified)    -0.28
44. O=C(NCCN1CCOCC1)c1cc2n(n1)C(C(F)(F)F)CC(c1ccc(F)cc1)N2 (stereo unspecified)    -15.3
45. CCN(CC)CCN1C(=O)C(O)=C(C(=O)c2ccco2)C1c1ccccn1 (stereo unspecified)    14.9
46. CC(C)(S)[C@@H](N)C(=O)O    -3.9
